Tested on: CCRF-CEM
Experiment: Cytotoxicity against human CEM cells after 72 hrs by MTT assay
Assay type: functional, cell-based
quantity: pIC50
Schema: pIC50 number; meaning minus log10 of the concentration expressed in molar units.

These solved cases illustrate the format of a correct answer.
COc1ccc2c(c1)CCC(=O)/C2=C/c1ccc(O)c(OC)c1 5.24
COc1cccc2c1CCC(=O)/C2=C/c1ccc(Cl)cc1 5.07

**Q:** Recorded pIC50 for "COc1ccc2c(c1)CCC(=O)/C2=C/c1ccc(C(C)(C)C)cc1" , please?
**A:** 5.51

**Q:** Recorded pIC50 for "COc1ccc2c(c1)/C(=C\c1ccc(C)cc1)C(=O)CC2" , please?
**A:** 5.42

**Q:** Recorded pIC50 for "COc1cccc2c1CCC(=O)/C2=C/c1ccccc1Cl" , please?
**A:** 5.05

**Q:** Recorded pIC50 for "COc1ccc2c(c1)CCC(=O)/C2=C/c1cccc(O)c1" , please?
**A:** 5.84

**Q:** Recorded pIC50 for "COc1ccc(/C=C2/C(=O)CCc3ccc(OC)cc32)cc1" , please?
**A:** 6.05

**Q:** Recorded pIC50 for "COc1ccc(/C=C2/C(=O)CCc3cc(OC)ccc32)cc1" , please?
**A:** 6.96

----------
Test system: CCRF-CEM
Assay: Cytotoxicity against human CEM cells after 72 hrs by MTT assay
Assay type: functional, cell-based
As shown below, each of these compounds has a reported pIC50 value.
Schema: pIC50 number; meaning minus log10 of the concentration expressed in molar units.

COc1ccc2c(c1)CCC(=O)/C2=C/c1ccc(O)cc1 6.02

**Q:** Under CCRF-CEM: pIC50 value of "COc1ccc2c(c1)CCC(=O)/C2=C/c1ccccc1Cl" ?
**A:** 6.24

**Q:** Under CCRF-CEM: pIC50 value of "COc1ccc2c(c1)/C(=C\c1ccc(OC)c(O)c1)C(=O)CC2" ?
**A:** 5.85

**Q:** Under CCRF-CEM: pIC50 value of "COc1ccc2c(c1)CCC(=O)/C2=C/c1cc(OC)c(OC)c(OC)c1" ?
**A:** 9.00

**Q:** Under CCRF-CEM: pIC50 value of "COc1ccc2c(c1)CCC(=O)/C2=C/c1ccc(Cl)c(Cl)c1" ?
**A:** 5.73

**Q:** Under CCRF-CEM: pIC50 value of "COc1ccc2c(c1)CCC(=O)/C2=C/c1ccccc1" ?
**A:** 6.04

**Q:** Under CCRF-CEM: pIC50 value of "COc1ccc2c(c1)CCC(=O)/C2=C/c1ccc(Cl)cc1Cl" ?
**A:** 5.92

----------
As shown below, each of these compounds has a reported log10 of IC50 value.
Test system: CCRF-CEM
Test: Cytotoxicity against human CEM cells after 72 hrs by MTT assay
Format: functional, cell-based
In our notation, the value equals log10 of IC50 in µM.

These solved cases illustrate the format of a correct answer.
COc1ccc2c(c1)CCC(=O)/C2=C/c1ccc(Br)cc1 0.18
COc1ccc2c(c1)/C(=C\c1cccc(O)c1)C(=O)CC2 0.41
COc1ccc(/C=C\c2cc(OC)c(OC)c(OC)c2)cc1O -3.00
COc1ccc2c(c1)CCC(=O)/C2=C/c1ccc(C)cc1 0.36
COc1ccc2c(c1)CCC(=O)/C2=C/c1ccc(C(F)(F)F)cc1 0.08

Now consider a different compound.
**Q:** Under CCRF-CEM: log10 of IC50 value of "COc1ccc2c(c1)/C(=C\c1cc(OC)c(OC)c(OC)c1)C(=O)CC2" ?
**A:** -3.00
